Biological target: recombinant expressed rat FAAH (Rattus norvegicus)
Construct: expressed in transfected cells; host or cells: COS-7 cells, transient, pcDNA3; dounce-homogenised cell extract
Test: FAAH hydrolysis assays with 14C-labeled fatty acid amide substrates (TLC, scintillation counting)
Format: biochemical
Conditions: 100 μM substrate
Property: % of FAAH activity (anandamide hydrolysis rate = 100%)

{"Molecule": "CCCCCCCC/C=C\\CCCCCCCC(N)=O [cis-9,10-octadecenoamide, Cis-9,10-octadecenoamide]", "Target Desc": "recombinant expressed rat FAAH (Rattus norvegicus)", "Units Label": "%", "Reported": 72.6}
{"Molecule": "CCCCC/C=C\\C/C=C\\C/C=C\\C/C=C\\CCCC(=O)NCCO [Anandamide, arachidonylethanolamide]", "Target Desc": "recombinant expressed rat FAAH (Rattus norvegicus)", "Units Label": "%", "Reported": 100}
{"Molecule": "CCCCCCCCCCCCCCCC(N)=O [Palmitic Amide, palmitic amide]", "Target Desc": "recombinant expressed rat FAAH (Rattus norvegicus)", "Units Label": "%", "Reported": 9.9}
{"Molecule": "CCCCCCCCCCCCCC(N)=O [Myristic Amide, myristic amide]", "Target Desc": "recombinant expressed rat FAAH (Rattus norvegicus)", "Units Label": "%", "Reported": 24.3}

* * *

Reported values of Rate of Hydrolysis for individual entries
Biological target: recombinant expressed rat FAAH (Rattus norvegicus, UniProt P97612)
Construct: expressed in transfected cells; host or cells: COS-7 cells, transient, pcDNA3; dounce-homogenised cell extract
Sequence (P97612 whole entry): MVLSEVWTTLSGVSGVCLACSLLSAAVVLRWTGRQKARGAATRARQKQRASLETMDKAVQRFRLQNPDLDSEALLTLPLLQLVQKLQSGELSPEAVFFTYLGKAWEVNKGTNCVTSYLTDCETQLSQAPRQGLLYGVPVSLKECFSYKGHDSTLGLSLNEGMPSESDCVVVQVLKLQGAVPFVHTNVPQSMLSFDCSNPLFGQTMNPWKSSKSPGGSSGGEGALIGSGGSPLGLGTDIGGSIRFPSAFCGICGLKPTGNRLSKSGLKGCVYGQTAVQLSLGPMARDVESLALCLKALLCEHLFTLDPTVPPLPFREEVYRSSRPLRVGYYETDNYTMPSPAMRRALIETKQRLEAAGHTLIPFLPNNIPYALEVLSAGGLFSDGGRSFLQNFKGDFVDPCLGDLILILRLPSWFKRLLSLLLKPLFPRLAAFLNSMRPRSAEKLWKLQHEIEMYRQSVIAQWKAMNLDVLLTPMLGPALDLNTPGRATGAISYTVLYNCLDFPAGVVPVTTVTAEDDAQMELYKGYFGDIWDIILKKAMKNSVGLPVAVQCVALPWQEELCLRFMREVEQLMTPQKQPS
Assay: FAAH hydrolysis assays with 14C-labeled fatty acid amide substrates (TLC, scintillation counting)
Format: biochemical
Details: 100 μM substrate, 35 μg transfected COS-7 cell protein, 5 minutes, 37° C.

{"Compound": "CCCCCCCCCCCCCCCC(N)=O [Palmitic Amide, palmitic amide]", "Rate of Hydrolysis [nmol/min/mg]": 33}
{"Compound": "CCCCCCCC/C=C\\CCCCCCCC(N)=O [cis-9,10-octadecenoamide, Cis-9,10-octadecenoamide]", "Rate of Hydrolysis [nmol/min/mg]": 242}
{"Compound": "CCCCC/C=C\\C/C=C\\C/C=C\\C/C=C\\CCCC(=O)NCCO [Anandamide, arachidonylethanolamide]", "Rate of Hydrolysis [nmol/min/mg]": 333}
{"Compound": "CCCCCCCCCCCCCC(N)=O [Myristic Amide, myristic amide]", "Rate of Hydrolysis [nmol/min/mg]": 81}

The measured values listed here are drawn from patent US6699682B2.
